Biological target: T1, human beta klotho protein (soluble, used in Biacore) (human, UniProt Q86Z14 53-997, limits assumed)
T1 construct: also called HuKLB; huKLB
T1 sequence: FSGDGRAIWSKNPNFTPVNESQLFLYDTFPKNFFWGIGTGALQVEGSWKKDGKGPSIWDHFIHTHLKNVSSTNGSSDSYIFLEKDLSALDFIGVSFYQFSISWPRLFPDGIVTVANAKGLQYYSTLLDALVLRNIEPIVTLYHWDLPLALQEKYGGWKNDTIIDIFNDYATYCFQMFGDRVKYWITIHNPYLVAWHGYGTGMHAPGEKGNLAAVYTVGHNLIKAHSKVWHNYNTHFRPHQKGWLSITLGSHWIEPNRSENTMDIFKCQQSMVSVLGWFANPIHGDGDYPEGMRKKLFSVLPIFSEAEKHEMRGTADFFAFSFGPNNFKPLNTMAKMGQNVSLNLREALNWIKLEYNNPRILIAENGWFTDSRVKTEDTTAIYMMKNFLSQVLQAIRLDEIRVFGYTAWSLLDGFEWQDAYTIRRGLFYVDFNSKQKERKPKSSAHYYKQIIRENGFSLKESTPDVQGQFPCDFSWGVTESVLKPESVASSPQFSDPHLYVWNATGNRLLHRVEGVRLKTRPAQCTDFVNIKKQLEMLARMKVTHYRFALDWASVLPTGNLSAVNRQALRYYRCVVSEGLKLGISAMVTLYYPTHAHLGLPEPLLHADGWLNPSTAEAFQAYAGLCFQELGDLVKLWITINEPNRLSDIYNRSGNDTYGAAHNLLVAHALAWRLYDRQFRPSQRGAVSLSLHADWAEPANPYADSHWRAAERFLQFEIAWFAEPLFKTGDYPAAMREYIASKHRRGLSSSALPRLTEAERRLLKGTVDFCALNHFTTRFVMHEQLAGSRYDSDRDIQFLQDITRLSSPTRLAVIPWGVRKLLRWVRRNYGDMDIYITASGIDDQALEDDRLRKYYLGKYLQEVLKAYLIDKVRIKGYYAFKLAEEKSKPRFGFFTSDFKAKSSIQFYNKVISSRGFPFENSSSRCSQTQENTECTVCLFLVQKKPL
Experiment: Biacore SPR, antibody captured on anti-mouse Fc, KLB as analyte (1.56-25 nM), 25 C
METRIC: Kd
Kindly format the answer as number then unit.

State its Kd for this binder: antibody 1D19 (antibody, V domains shown, Murine monoclonal antibody) VH: QVQPQESGPELVKPGALVKISCKASGYTFTRYDINWMKQRPGQGLEWIGWIYPGDSSTKFNENFKDKATLTADKSSSTAYMQLSSLTSENSTVYFCARSDYYGSRSFTYWGQGTLVTVSA VL: DIVLTQSPASLAVSLGQRATISCRASKSVSTSGYSYMHWYQQKPGQPPKLLIYLASNLESGVPARFSGSGSGTDFTLNIHPVEEEDAATYYCQHSRELPYTFGGGTKLEIK 1.25 nM
